assaySystem: Hypoxia-inducible factor 1-alpha (Homo sapiens) (UniProt Q16665)
Sequence (Q16665 whole entry, looked up): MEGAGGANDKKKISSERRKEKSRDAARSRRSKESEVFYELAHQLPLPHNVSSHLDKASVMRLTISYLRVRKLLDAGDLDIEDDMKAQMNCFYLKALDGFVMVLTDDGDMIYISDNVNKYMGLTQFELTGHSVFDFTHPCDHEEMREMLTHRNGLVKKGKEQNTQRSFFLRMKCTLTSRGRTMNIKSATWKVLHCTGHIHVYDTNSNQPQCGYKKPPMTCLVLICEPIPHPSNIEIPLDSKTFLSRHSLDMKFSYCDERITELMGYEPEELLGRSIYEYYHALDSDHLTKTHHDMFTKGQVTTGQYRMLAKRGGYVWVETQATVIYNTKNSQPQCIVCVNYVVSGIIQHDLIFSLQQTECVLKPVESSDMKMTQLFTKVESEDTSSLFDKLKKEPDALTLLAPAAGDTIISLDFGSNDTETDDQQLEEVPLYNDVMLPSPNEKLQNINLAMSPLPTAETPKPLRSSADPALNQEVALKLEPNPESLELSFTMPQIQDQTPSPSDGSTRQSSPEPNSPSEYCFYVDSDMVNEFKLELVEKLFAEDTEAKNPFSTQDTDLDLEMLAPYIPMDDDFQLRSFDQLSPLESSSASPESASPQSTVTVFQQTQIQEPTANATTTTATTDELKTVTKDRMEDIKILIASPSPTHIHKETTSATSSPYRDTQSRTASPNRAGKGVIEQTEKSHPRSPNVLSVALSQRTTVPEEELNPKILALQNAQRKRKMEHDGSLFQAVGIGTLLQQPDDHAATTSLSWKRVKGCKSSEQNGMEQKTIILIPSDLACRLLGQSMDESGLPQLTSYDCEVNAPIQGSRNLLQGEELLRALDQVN
assayInfo: HIF-2a and HIF-1a reporter inhibition panel, dose response, selectivity assay for HIF-2a inhibitor project, cell-based, luminescence (AID 651581)
conditionInfo: HIF-1a, run 1
pIC50: −log10 of the molar value.
observationType: pIC50

Consider the reported pIC50 for these molecules:
molecule	observed
O=C(Nc1ccc(NC(=O)c2ccco2)cc1)c1ccc2c(c1)OCCO2	< 4.00
O=C(NCc1ccccc1)C(=O)Nc1cccc(C(=O)O)c1	< 4.00
O=C(CCCc1ccccc1)Nc1cccc(C(=O)O)c1	< 4.00
CCOC(=O)C1CCCN(C(=O)COc2ccc(C(C)(C)C)cc2)CC1 (stereo unspecified)	< 4.00
Cc1c(CCC(=O)N[C@@H](CC(C)C)C(=O)O)c(=O)oc2cc3oc4c(c3cc12)CCCC4	5.58

Ask | // returns reported pIC50 for input O=C(O)c1ccc(N/N=C/c2ccc(C(F)(F)F)cc2)cc1
Reply | 4.65

Ask | // returns reported pIC50 for input CC(=O)N/N=C\c1cccc(OC/C=C/c2ccccc2)c1
Reply | < 4.00

Ask | // returns reported pIC50 for input Cc1cc(SC#N)cc(C)c1NC(=O)CCl
Reply | 4.70

Ask | // returns reported pIC50 for input CC(C)(C)c1ccc(-c2noc(CCC(=O)NCC3CCCO3)n2)cc1 (stereo unspecified)
Reply | < 4.00

Ask | // returns reported pIC50 for input CCOc1ccc(C(=O)Nc2cccc(C(=O)O)c2C)cc1Cl
Reply | < 4.52

Ask | // returns reported pIC50 for input CCOC(=O)c1sc(NC(=O)c2cc3c(s2)CCC(C)C3)nc1C (stereo unspecified)
Reply | 4.69

* * *

As shown below, each of these compounds has a reported pIC50 value.
assaySystem: Hypoxia-inducible factor 1-alpha (Homo sapiens) (UniProt Q16665)
assayInfo: HIF-2a and HIF-1a reporter inhibition panel, dose response, selectivity assay for HIF-2a inhibitor project, cell-based, luminescence (AID 651581)
conditionInfo: HIF-1a, run 2
The scale used: pIC50 is minus the common logarithm of the concentration in molar units.

Consider the reported pIC50 for these compounds:
compound	pIC50
CC(C)(C)c1ccc(-c2noc(CCC(=O)NCc3ccco3)n2)cc1	4.38
CCOC(=O)Cc1csc(NC(=S)NC(=O)c2ccc(F)cc2)n1	4.91
O=C(CCCc1nc(-c2ccccc2Cl)no1)NC1CCCC1	5.74
Cc1cc(SC#N)cc(C)c1NC(=O)CCl	4.55

// below: pIC50 requested for another compound
Ask | // returns reported pIC50 for input CC(=O)Nc1ccc(OCC(=O)c2ccc(C)cc2C)cc1
Reply | 4.06

* * *

assaySystem: Hypoxia-inducible factor 1-alpha (Homo sapiens) (UniProt Q16665)
assayInfo: HIF-2a and HIF-1a reporter inhibition panel, dose response, selectivity assay for HIF-2a inhibitor project, cell-based, luminescence (AID 651581)
conditionInfo: HIF-1a, run 2
observationType: pIC50
The scale used: pIC50 is minus the common logarithm of the concentration in molar units.

Consider the reported pIC50 for these molecules:
compound	assaySystem	pIC50
Cc1nc2cc(-c3ccc(Cl)cc3)nn2c(C)c1CCC(=O)NCc1ccco1	Hypoxia-inducible factor 1-alpha (Homo sapiens) (UniProt Q16665)	5.55
O=C(O)c1ccc(N/N=C/c2ccc3ncccc3c2)cc1	Hypoxia-inducible factor 1-alpha (Homo sapiens) (UniProt Q16665)	4.78
Cc1c(CCC(=O)O)c(=O)oc2cc(OCc3ccccc3Br)ccc12	Hypoxia-inducible factor 1-alpha (Homo sapiens) (UniProt Q16665)	4.68
CN(C)S(=O)(=O)c1cccc(NC(=O)CSc2cccc3cccnc23)c1	Hypoxia-inducible factor 1-alpha (Homo sapiens) (UniProt Q16665)	4.42

Ask | // returns reported pIC50 for input Cc1ccc(Oc2ccc(OCC(=O)Nc3ccncc3)cc2)cc1
Reply | 4.80

Ask | // returns reported pIC50 for input CCOC(=O)c1cc(-c2csc(-c3ccc(C(C)(C)C)cc3)n2)on1
Reply | 4.37

Ask | // returns reported pIC50 for input Cc1nnnn1/C(=C\c1ccccc1)C(=O)OCC(=O)Nc1ccc(Cl)cc1F
Reply | 4.67

Ask | // returns reported pIC50 for input COCCn1c(C)cc(C(=O)CSc2nnc(C)s2)c1C
Reply | 4.72

Ask | // returns reported pIC50 for input FC(F)(F)c1cnc(NNC(=S)Nc2ccccc2)c(Cl)c1
Reply | 4.36

* * *

assaySystem: Hypoxia-inducible factor 1-alpha (Homo sapiens)
assayInfo: HIF-2a and HIF-1a reporter inhibition panel, dose response, selectivity assay for HIF-2a inhibitor project, cell-based, luminescence (AID 651581)
conditionInfo: HIF-1a, mean of runs
The source made the active and inactive calls. The rule behind the calls is not given here.
Respond with a class label; see active, inactive

Example cases with answers are listed next.
compound	class
Cc1nc2cc(-c3cccc(F)c3)nn2c(C)c1CCC(=O)N1CCC2(CC1)OCCO2	active
COc1ccccc1C(C[N+](=O)[O-])c1c(N)n(C)c(=O)n(C)c1=O (stereo unspecified)	inactive
CCOC(=O)c1ccc(Oc2nc(NC(C)(C)C)nc(N(C)C)n2)cc1	inactive

Ask | Recorded test call requested for O=C(CCCSc1nc2ccccc2s1)NC1=NCCS1
Reply | inactive

Ask | Recorded test call requested for CCOC(=O)Cc1csc(NC(=S)NC(=O)c2ccccc2C)n1
Reply | inactive

Ask | Recorded test call requested for CN(C)S(=O)(=O)c1cccc(NC(=O)CSc2cccc3cccnc23)c1
Reply | active

Ask | Recorded test call requested for CCOC(=O)C1CCN(C(=O)CCc2c(C)nc3cc(-c4ccccc4)nn3c2C)CC1
Reply | active

* * *

As shown below, each of these compounds has a reported IC50 value.
assaySystem: Endothelial PAS domain-containing protein 1 (Homo sapiens) (UniProt Q99814)
assayInfo: HIF-2a and HIF-1a reporter inhibition panel, dose response, selectivity assay for HIF-2a inhibitor project, cell-based, luminescence (AID 651581)
conditionInfo: HIF-2a, run 2
Report the figure in µM without appending any unit label.

Consider the reported IC50 for these compounds:
compound	IC50 [µM]
COC(=O)c1cccc(NC(=O)NC(=O)c2ccccc2Cl)c1	7.66
O=C(O)c1cccc(CSc2nnc(-c3ccc(Cl)cc3)o2)c1	2.07
O=C(c1ccccc1)N1CCSc2sccc2C1=O	6.58
Nc1ccc(-c2nnn(CC(=O)N3CCCCC3)n2)cc1	17

Ask | // returns reported IC50 for input COC(=O)CCCNC(=O)CCc1nnc(-c2ccc(-c3ccccc3)cc2)o1
Reply | 2.6

Ask | // returns reported IC50 for input O=C(O)c1cccc(NC(=S)NC(=O)c2ccc3ccccc3c2)c1
Reply | 9.32

Ask | // returns reported IC50 for input CCOC(=O)Cc1csc(N/N=C/c2ccc(C(F)(F)F)cc2)n1
Reply | 0.221

Ask | // returns reported IC50 for input O=C(OCC(F)(F)F)c1cccc(COc2ccc3ccccc3c2)c1
Reply | 2.79

Ask | // returns reported IC50 for input Cc1nc(SCc2ccc(C(=O)O)cc2)nc2c1CCCC2
Reply | 4.75

Ask | // returns reported IC50 for input O=C(CSc1nnc(-c2ccc(Br)cc2)o1)Nc1cccc(C(=O)O)c1
Reply | 9.1

Ask | // returns reported IC50 for input COc1ccc(/C=C2\SC(=O)N(CCNC(=O)Cn3[nH]c(=O)c4ccccc4c3=O)C2=O)cc1
Reply | 13.1

* * *

assaySystem: Endothelial PAS domain-containing protein 1 (Homo sapiens) (UniProt Q99814)
assayInfo: HIF-2a and HIF-1a reporter inhibition panel, dose response, selectivity assay for HIF-2a inhibitor project, cell-based, luminescence (AID 651581)
conditionInfo: HIF-2a PANC, run 1
observationType: IC50 (µM)
Report the figure in µM without appending any unit label.

compound	assaySystem	readoutUnit	observed
N#Cc1ccccc1COc1ccc(/C=C/C(=O)O)cc1	Endothelial PAS domain-containing protein 1 (Homo sapiens) (UniProt Q99814)	µM	1.53
O=C(O)c1ccc(N/N=C/c2ccc(C(F)(F)F)cc2)cc1	Endothelial PAS domain-containing protein 1 (Homo sapiens) (UniProt Q99814)	µM	75.9
COCCn1c(C)cc(C(=O)CSc2nnc(C)s2)c1C	Endothelial PAS domain-containing protein 1 (Homo sapiens) (UniProt Q99814)	µM	3.81

// below: IC50 requested for another compound
Ask | // returns reported IC50 for input O=C(O)COc1ccc(-c2nccc(-c3ccccn3)n2)cc1
Reply | 1.36

* * *

assaySystem: Endothelial PAS domain-containing protein 1 (Homo sapiens)
assayInfo: HIF-2a and HIF-1a reporter inhibition panel, dose response, selectivity assay for HIF-2a inhibitor project, cell-based, luminescence (AID 651581)
conditionInfo: HIF-2a, run 1
observationType: log10(IC50) (log10 of the value in µM)
Use the decimal logarithm of IC50 (µM).

compound	log10(IC50)
CC(=O)Nc1ccc(OCC(=O)c2ccc(C)cc2C)cc1	0.44
Cn1c(/C=C/c2ccc(Cl)cc2)c([N+](=O)[O-])c(=O)n(C)c1=O	1.10
Cc1nnnn1/C(=C\c1ccccc1)C(=O)OCC(=O)Nc1ccc(Cl)cc1F	0.93

Ask | // returns reported log10(IC50) for input CC(=O)/C=C1/C(=O)Nc2ccccc21
Reply | 1.14

Ask | // returns reported log10(IC50) for input S=C(c1ccc(-c2ccccc2)cc1)N1CCOCC1
Reply | -0.01

Ask | // returns reported log10(IC50) for input COc1cc(/C=C/[N+](=O)[O-])ccc1O
Reply | 1.07

Ask | // returns reported log10(IC50) for input COC(=O)CSc1nnc(-c2sc3ccccc3c2Cl)o1
Reply | 0.32

Ask | // returns reported log10(IC50) for input Cc1ccc(C)c(S(=O)(=O)ON2C(=O)c3ccccc3C2=O)c1
Reply | 0.93
